Consider the following compounds; for each one, report its inhibition at 5 µM.
- Test system: SARS-CoV-2
- experiment notes: cell-based anti-viral assay using Vero E6 cell line, viral RNA by qRT-PCR
- condition description: Severe acute respiratory syndrome coronavirus 2, Vero C1008; 5 μM compound, Vero E6 cells, 48 h, calculated from ΔCt; read-out: % SARS-CoV-2 Inactivation (5 μM)

Asked: Item FC(F)(F)c1cc(Nc2nc3c(C(F)(F)F)cccc3[nH]2)cc(C(F)(F)F)c1 [Example 34] with SARS-CoV-2 - inhibition at 5 µM?
Given back: 100%

Asked: Item FC(F)(F)c1cc(C(F)(F)F)c2nc(N3CCCCC3)[nH]c2c1 [Example 16] with SARS-CoV-2 - inhibition at 5 µM?
Given back: < 3%

Asked: Item CN(c1cccc(C(F)(F)F)c1)c1nc2cccc(C(F)(F)F)c2[nH]1 [Example 42] with SARS-CoV-2 - inhibition at 5 µM?
Given back: < 3%

Asked: Item Fc1cc2nc(Nc3cccc(C(F)(F)F)c3)[nH]c2cc1F [Example 10] with SARS-CoV-2 - inhibition at 5 µM?
Given back: < 3%

Asked: Item C[C@@H](Nc1nc2c(C(F)(F)F)cc(C(F)(F)F)cc2[nH]1)c1cccc2ccccc12 [Example 19] with SARS-CoV-2 - inhibition at 5 µM?
Given back: < 3%

Asked: Item Fc1cc2nc(NCc3ccccc3)[nH]c2cc1F [Example 13] with SARS-CoV-2 - inhibition at 5 µM?
Given back: < 3%

Asked: Item CC(C)c1ccccc1Nc1nc2c(C(F)(F)F)cc(C(F)(F)F)cc2[nH]1 [Example 18] with SARS-CoV-2 - inhibition at 5 µM?
Given back: < 3%

Asked: Item FC(F)(F)c1cccc(Nc2nc3c(C(F)(F)F)cccc3[nH]2)c1 [Example 35] with SARS-CoV-2 - inhibition at 5 µM?
Given back: 99%

Asked: Item FC(F)(F)c1ccc(Nc2nc3ccc(C(F)(F)F)cc3[nH]2)cc1 [Example 33] with SARS-CoV-2 - inhibition at 5 µM?
Given back: 100%

Asked: Item FC(F)(F)Oc1ccc2nc(Nc3cccc(C(F)(F)F)c3)[nH]c2c1 [Example 30] with SARS-CoV-2 - inhibition at 5 µM?
Given back: 99.9%

Asked: Item FC(F)(F)c1cc(C(F)(F)F)c2nc(NC3CCOCC3)[nH]c2c1 [Example 7] with SARS-CoV-2 - inhibition at 5 µM?
Given back: < 3%

Asked: Item CN(c1cc(C(F)(F)F)cc(C(F)(F)F)c1)c1nc2cccc(C(F)(F)F)c2[nH]1 [Example 44] with SARS-CoV-2 - inhibition at 5 µM?
Given back: > 95%

Asked: Item FC(F)(F)c1ccc(Nc2nc3c(C(F)(F)F)cccc3[nH]2)cc1 [Example 36] with SARS-CoV-2 - inhibition at 5 µM?
Given back: > 99.9%

Asked: Item FC(F)(F)Oc1ccc2nc(Nc3cc(C(F)(F)F)cc(C(F)(F)F)c3)[nH]c2c1 [Example 29] with SARS-CoV-2 - inhibition at 5 µM?
Given back: 99.9%

Asked: Item Fc1cc2nc(Nc3ccc(C(F)(F)F)cc3)[nH]c2cc1F [Example 12] with SARS-CoV-2 - inhibition at 5 µM?
Given back: 90%

Asked: Item FC(F)(F)c1cccc(Nc2nc3ccc(C(F)(F)F)cc3[nH]2)c1 [Example 32] with SARS-CoV-2 - inhibition at 5 µM?
Given back: > 99%

Asked: Item COc1ccc(Nc2nc3cc(F)c(F)cc3[nH]2)cc1Br [Example 9] with SARS-CoV-2 - inhibition at 5 µM?
Given back: < 3%

Asked: Item Cn1c(Nc2ccccc2)nc2cc(F)c(F)cc21 [Example 38] with SARS-CoV-2 - inhibition at 5 µM?
Given back: < 3%

Asked: Item CC1(Nc2nc3c(C(F)(F)F)cc(C(F)(F)F)cc3[nH]2)CCC1 [Example 21] with SARS-CoV-2 - inhibition at 5 µM?
Given back: > 99%
